Test: modulation of TERT promoter-driven luciferase – cell-based, luciferase reporter, human, primary screen (AID 1259240)
Details: A2780 TERT promoter luciferase reporter, 16 h; at 20 µM, fold versus average of vehicle-only wells
Calls of active or inactive are those of the source. No stated cut-off is given here; in the data, active means fold change mostly below about -2 (no sharp cut-off); inactive means mostly above about -1.8.
Outcome codes: class 1 (active), class 0 (inactive)

compound | cat
C=CCn1c(=N)n(CC(=O)C(C)(C)C)c2ccccc21 | class 0
O=C(NCCc1c[nH]c2ccccc12)c1cc2ccccn2n1 | class 0
CCc1cccc2c1NC(=O)C2(O)CC(=O)c1cccs1 (stereo not given) | class 0
Cc1ccc(CNc2nnc(Cc3ccncc3)c3ccccc23)cc1 | class 0
COc1ccc(-c2noc(-c3ccc(Cl)cc3)n2)cc1OC | class 1
Cc1ccc2c(C)nc(NC3=NCN(C4CCCC4)CN3)nc2c1 | class 0
Cc1ccc2c(c1)/C(=c1/sc3n(c1=O)CN(c1ccc(Cl)cc1)CN=3)C(=O)N2 | class 0
CCOC(=O)c1[nH]c2ccc(F)cc2c1N | class 0
CCNC(=O)CC1C(=O)N(c2ccc(F)cc2)C(=O)N1CCC(C)C (stereo not given) | class 0
COc1ccc(CCn2c(=O)c3cccnc3n(CC#N)c2=O)cc1OC | class 0
CCCCNc1nc2c(c(=O)[nH]c(=O)n2C)n1CCO | class 0
CC(C)CC(NS(=O)(=O)c1ccc2c(c1)oc(=O)n2C)C(=O)N1CCn2c1nc1ccccc12 (stereo not given) | class 0
COc1ccc(S(=O)(=O)N2N=C(c3ccc(NS(C)(=O)=O)cc3)CC2c2ccco2)cc1 (stereo not given) | class 0
COc1ccc(NC(=O)CN2N=NC3C(=O)N(c4ccc(Cl)cc4)C(=O)C32)c(OC)c1 (stereo not given) | class 0
O=C(Cn1c(=O)oc2cc(S(=O)(=O)NC3CCCC3)ccc21)NC1CCCCCCC1 | class 0
Cc1[nH]nc2c1C(c1ccccc1F)NC2=O (stereo not given) | class 0
CCOC(=O)N1CCN(c2c(NC3CCCC(C)C3C)c(=O)c2=O)CC1 (stereo not given) | class 0
Fc1ccc(OCc2nc(-c3ccc(-n4cccc4)cc3)no2)cc1 | class 0
Cc1nn2c(=O)/c(=C/c3ccc(Cl)c(Cl)c3)sc2nc1=O | class 0
CCc1nc(N)c(C#N)c(-c2ccco2)c1C | class 1
Brc1cccc(-c2nc3cnccn3c2NC2CCCCC2)c1 | class 0
CCc1ccc2c(c1)c1n[nH]c(=S)nc1n2C | class 0
Cc1ccc(-c2nc3cnccn3c2Nc2ccccc2C)o1 | class 0
Cc1ccc(-c2cc(C(F)F)n3ncc(C(=O)NCc4cccnc4)c3n2)cc1 | class 0
COc1cccc(-c2nc(S(=O)(=O)c3ccc(C)cc3)c(N(C)C)o2)c1 | class 0
O=C(NCCc1c[nH]c2ccccc12)c1ccc(NC2=NC3CS(=O)(=O)CC3S2)cc1 (stereo not given) | class 0
O=C1c2cccnc2C(=O)N1CNc1ccc(Cl)cc1 | class 0
COc1cc(Nc2nc3ccccc3n3cnnc23)cc(OC)c1OC | class 0
COCCN1C(=O)c2oc3ccc(F)cc3c(=O)c2C1c1cccc(O)c1 (stereo not given) | class 0
COc1cc2nc(CN3C(=O)c4ccccc4C3=O)oc(=O)c2cc1OC | class 1
c1ccc(Nc2c(-c3ccc(N4CCOCC4)cc3)nc3cnccn23)cc1 | class 0
COc1ccc2c(c1)OC13CCCCC1C2C(C(=O)c1ccccc1)C(=O)N3 (stereo not given) | class 1
Cc1ccc(Cn2ccc(NC(=O)c3noc(C(C)C)c3[N+](=O)[O-])n2)cc1 | class 1
COc1ccc(C2C=C(c3cccnc3)Nc3nc4ccccc4n32)cc1 (stereo not given) | class 0
O=S1(=O)NC(=NC2CCCCCC2)c2ccccc21 | class 0
Cc1ccc2c(c1)c(-c1ccccc1)nc1nncn12 | class 0
CCOCCCNc1nc2c(-c3ccccc3)nnn2c2ccccc12 | class 0
CC1CC(C)CN(C(=O)C2CCC(CNS(=O)(=O)c3cccc4nsnc34)CC2)C1 (stereo not given) | class 0
CN(C)C(=O)Nc1ccc2snnc2c1 | class 0
CCC(CC)COC(=O)C1=C(C)NC(=O)CC1c1ccccc1C (stereo not given) | class 0
O=C1C2ON(c3ccccc3)C(c3ccncc3)C2C(=O)N1c1ccc(N2CCOCC2)cc1 (stereo not given) | class 0
CCC(C)NC(=O)Cn1ncc2c3ccccc3n(C)c2c1=O (stereo not given) | class 0
CC(C)CCNS(=O)(=O)c1ccc2c(c1)n(C)c(=O)c(=O)n2C | class 0
O=C(CSc1nnc2ccc3ccccc3n12)Nc1ccc2c(c1)OCCO2 | class 0
COC(=O)c1c(NC(=O)Cn2nc(C)c([N+](=O)[O-])c2C)sc2c1CCCC2 | class 0
